# Test system: SK-MEL-2 melanoma
# protocol: NCI-60 one-dose screen, 48 h (100 = growth as untreated, 0 = no growth, -100 = all killed)
# reportedConditions: 10 µM unless noted
# Description: Growth inhibition of the SK-MEL-2 human tumor cell line is measured as a screen for anti-cancer activity. Cells are grown in 96 well plates and exposed to the test compound for 48 hours. Compounds are tested at a single concentration, which is 10^-5 M for most compounds. The reported endpoint is percent growth (GI% or GIPRCNT), where numbers from 0 - 100% represent growth inhibition, and numbers from -100% - 0 represent cell death. For example, a value of 40 represents 60% growth inhibition. […]
About 83,000 compounds went through this panel and 20% of them were active in at least one assay; those are over-represented in the sample as a whole.
reportedEndpoint: growth (%)
One number for each entry, in %.

Below: 3 compounds and their reported growth.
compound | growth / %
CC1CCN(CCCCCOc2ccc3oc4cc(Cl)ccc4c(=O)c3c2)CC1 | 88
COc1cc(-c2cn(-c3ccc(Cl)c(Cl)c3)c(=O)[nH]2)cc(OC)c1OC | 97
COCCOCCOCc1n(Cc2ccc3ccccc3n2)c2ccccc2[n+]1Cc1ccc2ccccc2n1 | -8.51

Respectfully, I request growth for each entry included below.
1. COC(=O)c1cncc(C(=O)Nc2ccc(-n3cnc4ccccc43)cc2)c1
2. Nc1c(C(=O)c2ccccc2)sc2nc(-c3cc4ccccc4o3)cc(-c3ccc(Cl)cc3)c12
3. CCOC(=O)c1c(-c2ccc(O)cc2)c(C#N)c2c(C#N)c(N)nn2c1N
4. C#C[C@@]1(O)[C@@H](CO)O[C@@H](n2cnc3c(-c4ccccc4)ncnc32)[C@@H]1O

105
84.1
44.9
107

----------
# Test system: OVCAR-5 ovarian
# protocol: NCI-60 one-dose screen, 48 h
# reportedConditions: 10 µM unless noted
Compounds without any hit were thinned out: in the full panel of roughly 83,000, 20% have a hit. Activity calls are given as the source filed them. Rule for the calls: active = growth percent below 10; inactive = the rest.
Can you answer with just one of these options? active, inactive

See these solved cases before continuing.
compound | targetOrTestSystem | className
Cc1c(Cl)cccc1NC(=O)c1sc2nc3c(cc2c1N)CN(Cc1ccccc1)CC3 | OVCAR-5 ovarian | inactive
COc1ccc2c(c1)OC13Oc4cc(OC)ccc4C=C1CCCCC3=C2 | OVCAR-5 ovarian | inactive
COc1ccc(C2N(c3cc(OC)c(OC)c(OC)c3)C(=O)C2(F)F)cc1F (stereo not given) | OVCAR-5 ovarian | inactive
C=C1C(=O)O[C@H]2[C@H]1CC/C(COC(=O)CCCCC(=O)OC/C1=C/CC[C@@]3(C)O[C@H]3[C@H]3OC(=O)C(=C)[C@@H]3CC1)=C\CC[C@@]1(C)O[C@@H]21 | OVCAR-5 ovarian | inactive

Check the results log: what was the call for Nc1ccccc1NS(=O)(=O)c1ccc(Cl)cc1 ?
inactive

Check the results log: what was the call for C#CC[C@@H]1C[C@]2(C)[C@H]3CC[C@@H]4[C@H]5[C@H](C(=C)C)CC[C@]5(C(=O)O)CC[C@@]4(C)[C@]3(C)CC[C@H]2C(C)(C)[C@H]1O ?
inactive

----------
# Tested on: COLO 205 colon
# protocol: NCI-60 one-dose screen, 48 h
# reportedConditions: 10 µM unless noted
About 83,000 compounds went through this panel and 20% of them were active in at least one assay; those are over-represented in the sample as a whole. Active and inactive are the calls of the source. Rule for the calls: active = growth percent below 10; inactive = the rest.
Can you answer with just one of these options? yes (1) for active, no (0) for inactive

See these solved cases before continuing.
compound | targetOrTestSystem | className
COc1cccc(NC(=O)Nc2ccc(Oc3ncnc4[nH]c(C)c(C)c34)cc2)c1 | COLO 205 colon | no (0)
Nc1ccccc1NS(=O)(=O)c1ccc(Cl)cc1 | COLO 205 colon | no (0)
CN(C)CCCn1c2c(c3cc(-c4cccc(S(N)(=O)=O)c4)ccc3c1=O)C(=O)c1ccccc1-2 | COLO 205 colon | no (0)
Cc1ccc(C(=O)/C(=C/c2ccc([N+](=O)[O-])cc2)S(=O)Cc2ccccc2)cc1 (centres undefined) | COLO 205 colon | yes (1)
Nc1ccc(C(=O)Nc2cccc(C(=O)Nc3ccc4c(O)c(N=Nc5ccc(N=Nc6ccc(S(=O)(=O)O)cc6)cc5)c(S(=O)(=O)O)cc4c3)c2)cc1 | COLO 205 colon | no (0)

Moving on to the next compound.
Check the results log: what was the call for COc1ccc(/C=C(/C(=O)N2CCN(Cc3ccccc3)CC2)c2cc(OC)c(OC)c(OC)c2)cc1O ?
no (0)
